relative viability listing for selected compounds.
# Tested on: RERF-LC-KJ
# PROTOCOL_SUMMARY: relative viability (nuclei count vs DMSO), 5 days (fraction); higher = more cells survive
# STUDY_CONDITIONS: first compound 4 µM
I only need the number, thanks.

Ask | Give a short answer stating reported relative viability for COc1cc(N2CCC(C(N)=O)CC2)ccc1Nc1nc(N)c(Cl)c(Nc2ccccc2S(=O)(=O)C(C)C)n1 [HG-5-88-01] + Nc1ncn([C@H]2C[C@H](O)[C@@H](CO)O2)c(=O)n1 [Decitabine] (partner 2 µM) .
Reply | 0.528

Ask | Specify reported relative viability for the compound shown: COc1cc(N2CCC(C(N)=O)CC2)ccc1Nc1nc(N)c(Cl)c(Nc2ccccc2S(=O)(=O)C(C)C)n1 [HG-5-88-01] + COc1cc2c(Oc3ccc(NC(=O)C4(C(=O)Nc5ccc(F)cc5)CC4)cc3F)ccnc2cc1OCCCN1CCOCC1 [Foretinib] (partner 0.25 µM)
Reply | 0.846

---

# System: HCC-44
# PROTOCOL_SUMMARY: relative viability (nuclei count vs DMSO), 5 days (fraction); higher = more cells survive
# STUDY_CONDITIONS: first compound 0.1265 µM
Listed compounds paired with reported relative viability
Keep it simple and answer with nothing but the number.

Clc1ccc(Nc2nnc(Cc3ccncc3)c3ccccc23)cc1 [Vatalanib] + C[C@@H](Oc1cc(-c2cnn(C3CCNCC3)c2)cnc1N)c1c(Cl)ccc(F)c1Cl [Crizotinib] (partner 1 µM) | 0.842
C[C@@H]1CN(CC(=O)Nc2ccc3c(c2)Cc2cccc(-c4cc(=O)cc(N5CCOCC5)o4)c2S3)C[C@H](C)O1 + CC1(C)CCC(c2ccc(Cl)cc2)=C(CN2CCN(c3ccc(C(=O)NS(=O)(=O)c4ccc(N[C@H](CCN5CCOCC5)CSc5ccccc5)c(S(=O)(=O)C(F)(F)F)c4)cc3)CC2)C1 [Navitoclax] (partner 0.5 µM) | 0.894
C[C@@H]1CN(CC(=O)Nc2ccc3c(c2)Cc2cccc(-c4cc(=O)cc(N5CCOCC5)o4)c2S3)C[C@H](C)O1 + CC(=O)c1c(C)c2cnc(Nc3ccc(N4CCNCC4)cn3)nc2n(C2CCCC2)c1=O [Palbociclib] (partner 0.5 µM) | 0.965

Ask | Quickly give me recorded relative viability for C[C@@H]1CN(CC(=O)Nc2ccc3c(c2)Cc2cccc(-c4cc(=O)cc(N5CCOCC5)o4)c2S3)C[C@H](C)O1 + C[C@@H](Oc1cc(-c2cnn(C3CCNCC3)c2)cnc1N)c1c(Cl)ccc(F)c1Cl [Crizotinib] (partner 1 µM)
Reply | 0.828

Ask | Supply relative viability value. Item: Clc1ccc(Nc2nnc(Cc3ccncc3)c3ccccc23)cc1 [Vatalanib] + O=C(c1cc(Cc2n[nH]c(=O)c3ccccc23)ccc1F)N1CCN(C(=O)C2CC2)CC1 [Olaparib] (partner 8 µM)
Reply | 0.971

Ask | Return the recorded relative viability value; entry: Clc1ccc(Nc2nnc(Cc3ccncc3)c3ccccc23)cc1 [Vatalanib] + CC(C)C[C@H](NC(=O)[C@H](Cc1ccccc1)NC(=O)c1cnccn1)B(O)O [Bortezomib] (partner 0.002 µM)
Reply | 0.855

Ask | Give relative viability for the following compound: COc1cc(N2CCC(C(N)=O)CC2)ccc1Nc1nc(N)c(Cl)c(Nc2ccccc2S(=O)(=O)C(C)C)n1 [HG-5-88-01] + Nc1ncn([C@H]2C[C@H](O)[C@@H](CO)O2)c(=O)n1 [Decitabine] (partner 2 µM)
Reply | 0.996

Ask | State, in one line, measured relative viability of COc1cc(N2CCC(C(N)=O)CC2)ccc1Nc1nc(N)c(Cl)c(Nc2ccccc2S(=O)(=O)C(C)C)n1 [HG-5-88-01] + C[C@@H](Oc1cc(-c2cnn(C3CCNCC3)c2)cnc1N)c1c(Cl)ccc(F)c1Cl [Crizotinib] (partner 1 µM)
Reply | 0.791

---

Quick reference for relative viability among some compounds
# Tested on: HCC-827
# PROTOCOL_SUMMARY: relative viability (nuclei count vs DMSO), 5 days (fraction); higher = more cells survive
# STUDY_CONDITIONS: first compound 0.1265 µM

// known answers, use as guide
C[C@@H]1CN(CC(=O)Nc2ccc3c(c2)Cc2cccc(-c4cc(=O)cc(N5CCOCC5)o4)c2S3)C[C@H](C)O1 + CC(C)C[C@H](NC(=O)[C@H](Cc1ccccc1)NC(=O)c1cnccn1)B(O)O [Bortezomib] (partner 0.002 µM) | 1.02
C[C@@H]1CN(CC(=O)Nc2ccc3c(c2)Cc2cccc(-c4cc(=O)cc(N5CCOCC5)o4)c2S3)C[C@H](C)O1 + CCNC(=O)c1noc(-c2cc(C(C)C)c(O)cc2O)c1-c1ccc(CN2CCOCC2)cc1 [Luminespib] (partner 0.01 µM) | 0.469
Clc1ccc(Nc2nnc(Cc3ccncc3)c3ccccc23)cc1 [Vatalanib] + Cc1cc(Nc2cc(N3CCN(C)CC3)nc(Sc3ccc(NC(=O)C4CC4)cc3)n2)n[nH]1 [Tozasertib] (partner 0.1 µM) | 0.423
COc1cc(N2CCC(C(N)=O)CC2)ccc1Nc1nc(N)c(Cl)c(Nc2ccccc2S(=O)(=O)C(C)C)n1 [HG-5-88-01] + COc1cc2c(Oc3ccc(NC(=O)C4(C(=O)Nc5ccc(F)cc5)CC4)cc3F)ccnc2cc1OCCCN1CCOCC1 [Foretinib] (partner 0.25 µM) | 1.12
COc1cc(N2CCC(C(N)=O)CC2)ccc1Nc1nc(N)c(Cl)c(Nc2ccccc2S(=O)(=O)C(C)C)n1 [HG-5-88-01] + O=C(CCCCCCC(=O)Nc1ccccc1)NO [Vorinostat] (partner 1 µM) | 0.807
Clc1ccc(Nc2nnc(Cc3ccncc3)c3ccccc23)cc1 [Vatalanib] + O=C(c1cc(Cc2n[nH]c(=O)c3ccccc23)ccc1F)N1CCN(C(=O)C2CC2)CC1 [Olaparib] (partner 8 µM) | 0.655
Clc1ccc(Nc2nnc(Cc3ccncc3)c3ccccc23)cc1 [Vatalanib] + Nc1nc2[nH]cc(CCc3ccc(C(=O)N[C@@H](CCC(=O)O)C(=O)O)cc3)c2c(=O)[nH]1 [Pemetrexed] (partner 0.2 µM) | 0.232
COc1cc(N2CCC(C(N)=O)CC2)ccc1Nc1nc(N)c(Cl)c(Nc2ccccc2S(=O)(=O)C(C)C)n1 [HG-5-88-01] + NC(=O)Nc1cc(-c2cccc(F)c2)sc1C(=O)N[C@H]1CCCNC1 [AZD7762] (partner 0.2 µM) | 0.184

Ask | Identify the reported relative viability for the following entry. Clc1ccc(Nc2nnc(Cc3ccncc3)c3ccccc23)cc1 [Vatalanib] + COc1cccc2cc(-c3nc([C@H]4CC[C@H](C(=O)O)CC4)n4ncnc(N)c34)[nH]c12 [OSI-027] (partner 0.5 µM)
Reply | 0.729

Ask | Dear colleague, please send me the reported relative viability for C[C@@H]1CN(CC(=O)Nc2ccc3c(c2)Cc2cccc(-c4cc(=O)cc(N5CCOCC5)o4)c2S3)C[C@H](C)O1 + CC1(C)CCC(c2ccc(Cl)cc2)=C(CN2CCN(c3ccc(C(=O)NS(=O)(=O)c4ccc(N[C@H](CCN5CCOCC5)CSc5ccccc5)c(S(=O)(=O)C(F)(F)F)c4)cc3)CC2)C1 [Navitoclax] (partner 0.5 µM) when you can.
Reply | 0.944

---

List of relative viability values.
# Test system: A-427
# PROTOCOL_SUMMARY: relative viability (nuclei count vs DMSO), 5 days (fraction); higher = more cells survive
# STUDY_CONDITIONS: first compound 0.03162 µM
Answer field: number only, no words.

CC(C)Oc1cc(Nc2nc(N[C@@H](C)c3ccc(F)cn3)ncc2Cl)n[nH]1 [AZ23] + N=C(N)NC(=N)NCCc1ccccc1 [Phenformin] (partner 250 µM) | 0.365
CC(C)Oc1cc(Nc2nc(N[C@@H](C)c3ccc(F)cn3)ncc2Cl)n[nH]1 [AZ23] + NC(=O)Nc1cc(-c2cccc(F)c2)sc1C(=O)N[C@H]1CCCNC1 [AZD7762] (partner 0.2 µM) | 0.724

Next up:
Ask | Answer with the recorded relative viability of CC(C)Oc1cc(Nc2nc(N[C@@H](C)c3ccc(F)cn3)ncc2Cl)n[nH]1 [AZ23] + COc1cccc2cc(-c3nc([C@H]4CC[C@H](C(=O)O)CC4)n4ncnc(N)c34)[nH]c12 [OSI-027] (partner 0.5 µM) only.
Reply | 0.448

---

Some molecules, each annotated with its measured relative viability.
# System: NCI-H1703
# PROTOCOL_SUMMARY: relative viability (nuclei count vs DMSO), 5 days (fraction); higher = more cells survive
# STUDY_CONDITIONS: first compound 0.08 µM
Hey, just send me the number, nothing else.

Please review the following examples before continuing.
CCCCCCCCCCCC1=C(O)C(=O)C=C(O)C1=O [Embelin] + CC(C)C[C@H](NC(=O)[C@H](Cc1ccccc1)NC(=O)c1cnccn1)B(O)O [Bortezomib] (partner 0.002 µM) | 0.26
CCCCCCCCCCCC1=C(O)C(=O)C=C(O)C1=O [Embelin] + COc1cc2c(Oc3ccc(NC(=O)C4(C(=O)Nc5ccc(F)cc5)CC4)cc3F)ccnc2cc1OCCCN1CCOCC1 [Foretinib] (partner 0.25 µM) | 0.413
CCCCCCCCCCCC1=C(O)C(=O)C=C(O)C1=O [Embelin] + C[C@]1(O)C[C@@H](c2nc(-c3ccc4ccc(-c5ccccc5)nc4c3)c3c(N)nccn32)C1 [Linsitinib] (partner 1 µM) | 0.983

Now for a further molecule.
Ask | Look up and report measured relative viability for this entry: CCCCCCCCCCCC1=C(O)C(=O)C=C(O)C1=O [Embelin] + O=C(c1cc(Cc2n[nH]c(=O)c3ccccc23)ccc1F)N1CCN(C(=O)C2CC2)CC1 [Olaparib] (partner 8 µM)
Reply | 0.457
